Recorded binding signal for the following sequences
- Measured on: MBP-FoxP1dN (Mus musculus, UniProt P58462 326-579)
- Sequence: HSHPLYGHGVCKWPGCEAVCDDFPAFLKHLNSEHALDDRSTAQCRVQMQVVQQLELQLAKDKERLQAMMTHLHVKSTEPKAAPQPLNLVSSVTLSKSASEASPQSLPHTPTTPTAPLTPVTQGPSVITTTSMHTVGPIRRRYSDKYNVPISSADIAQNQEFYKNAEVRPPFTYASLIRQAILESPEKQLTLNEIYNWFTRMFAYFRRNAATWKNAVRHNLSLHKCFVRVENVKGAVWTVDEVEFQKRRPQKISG
- Method description: PD-seq (MBP pull-down with sequencing); 20 mM Tris-HCl pH 7.5, 100 mM NaCl, 1.5 mM MgCl2, 0.4 uM protein, 0.1 uM dsDNA library, 30 min, room temperature, amylose pull-down; high values mean tight binding
- Run parameters: protein: recombinant; tags: His6-MBP; chain copies: 2; dsDNA, one strand shown
Over roughly 16,000 sequences, “rpm ratio (pull-down/input)” has its median near 0.94; the highest 2% begin near 1.7. The sample as a whole holds a higher share of the highest values than the screen did.

Measured binding signal, `GATGATTGTTCTCCCAGCTGATGAATTGAATATATCGAGTAAACAAATTTTCCTAATCTTTCTGTTCAAGCGCCATCTAC` : 1.04 RPM ratio (pull-down/input)

Measured binding signal, `GATGATTGTTCTCCCAGCTGATGAATTGGTGTGTTCGAGTAAACAAATTTTCCTAATCTTTCTGTTCAAGCGCCATCTAC` : 1.34 RPM ratio (pull-down/input)

Measured binding signal, `GATGATTGTTCTCCCAGCTGATGAATTTGTTTGATCGAGTAAACAAATTTTCCTAATCTTTCTGTTCAAGCGCCATCTAC` : 1.47 RPM ratio (pull-down/input)

Measured binding signal, `GATGATTGTTCTCCCAGCTGATGAATTTGTTGGTTCGAGTAAACAAATTTTCCTAATCTTTCTGTTCAAGCGCCATCTAC` : 2.02 RPM ratio (pull-down/input)

Measured binding signal, `GATGATTGTTCTCCCAGCTGATGAATTTTTTGGTTCGAGTAAACAAATTTTCCTAATCTTTCTGTTCAAGCGCCATCTAC` : 1.01 RPM ratio (pull-down/input)

Measured binding signal, `GATGATTGTTCTCCCAGCTGATGAATTACGGGCATCGAGTAAACAAATTTTCCTAATCTTTCTGTTCAAGCGCCATCTAC` : 1.11 RPM ratio (pull-down/input)

----------
- Measured on: MBP-FoxP1dN (Mus musculus, UniProt P58462 326-579)
- Sequence: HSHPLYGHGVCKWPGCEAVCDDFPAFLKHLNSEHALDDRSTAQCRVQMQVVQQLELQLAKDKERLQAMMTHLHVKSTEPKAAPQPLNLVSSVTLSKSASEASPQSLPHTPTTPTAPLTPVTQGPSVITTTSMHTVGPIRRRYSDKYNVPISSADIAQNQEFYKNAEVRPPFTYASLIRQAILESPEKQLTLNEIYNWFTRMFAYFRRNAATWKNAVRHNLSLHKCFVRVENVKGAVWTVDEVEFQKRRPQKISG
- Method description: PD-seq (MBP pull-down with sequencing); 20 mM Tris-HCl pH 7.5, 100 mM NaCl, 1.5 mM MgCl2, 0.4 uM protein, 0.1 uM dsDNA library, 30 min, room temperature, amylose pull-down; high values mean tight binding
- Run parameters: protein: recombinant; tags: His6-MBP; chain copies: 2; dsDNA, one strand shown
The full ranking holds about 16,000 sequences; the median of “rpm ratio (pull-down/input)” is about 0.94, and the highest 2% start at about 1.7. The sample holds the highest values, similar sequences and a random draw of the others, so the mix is not that of the screen.
Endpoint name: binding signal

{"Record sequence": "GATGATTGTTCTCCCAGCTGATGAATTTTATATGTCGAGTAAACAAATTTTCCTAATCTTTCTGTTCAAGCGCCATCTAC", "binding signal": "0.988 RPM ratio (pull-down/input)"}
{"Record sequence": "GATGATTGTTCTCCCAGCTGATGAATTATATCTGTCGAGTAAACAAATTTTCCTAATCTTTCTGTTCAAGCGCCATCTAC", "binding signal": "1.08 RPM ratio (pull-down/input)"}
{"Record sequence": "GATGATTGTTCTCCCAGCTGATGAATTATTTACGTCGAGTAAACAAATTTTCCTAATCTTTCTGTTCAAGCGCCATCTAC", "binding signal": "2.19 RPM ratio (pull-down/input)"}
{"Record sequence": "GATGATTGTTCTCCCAGCTGATGAATTATTCCTGTCGAGTAAACAAATTTTCCTAATCTTTCTGTTCAAGCGCCATCTAC", "binding signal": "0.964 RPM ratio (pull-down/input)"}
{"Record sequence": "GATGATTGTTCTCCCAGCTGATGAATTCCATTACTCGAGTAAACAAATTTTCCTAATCTTTCTGTTCAAGCGCCATCTAC", "binding signal": "0.874 RPM ratio (pull-down/input)"}

Measured binding signal, `GATGATTGTTCTCCCAGCTGATGAATTATGTGTATCGAGTAAACAAATTTTCCTAATCTTTCTGTTCAAGCGCCATCTAC` : 1.92 RPM ratio (pull-down/input)

Measured binding signal, `GATGATTGTTCTCCCAGCTGATGAATTACAATGTTCGAGTAAACAAATTTTCCTAATCTTTCTGTTCAAGCGCCATCTAC` : 1.4 RPM ratio (pull-down/input)

Measured binding signal, `GATGATTGTTCTCCCAGCTGATGAATTTAGGAGATCGAGTAAACAAATTTTCCTAATCTTTCTGTTCAAGCGCCATCTAC` : 0.968 RPM ratio (pull-down/input)

Measured binding signal, `GATGATTGTTCTCCCAGCTGATGAATTTATATTCTCGAGTAAACAAATTTTCCTAATCTTTCTGTTCAAGCGCCATCTAC` : 1.04 RPM ratio (pull-down/input)

Measured binding signal, `GATGATTGTTCTCCCAGCTGATGAATTGGATAGCTCGAGTAAACAAATTTTCCTAATCTTTCTGTTCAAGCGCCATCTAC` : 0.85 RPM ratio (pull-down/input)

----------
- Measured on: MBP-FoxP1dN (Mus musculus, UniProt P58462 326-579)
- Sequence: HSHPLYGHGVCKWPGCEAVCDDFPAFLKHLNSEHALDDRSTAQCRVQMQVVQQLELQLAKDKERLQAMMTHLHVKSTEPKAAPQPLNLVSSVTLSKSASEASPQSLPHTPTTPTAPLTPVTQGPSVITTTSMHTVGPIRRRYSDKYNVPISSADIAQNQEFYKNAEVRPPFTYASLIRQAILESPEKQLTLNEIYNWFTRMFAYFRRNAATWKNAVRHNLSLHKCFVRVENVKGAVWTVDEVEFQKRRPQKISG
- Method description: PD-seq (MBP pull-down with sequencing); 20 mM Tris-HCl pH 7.5, 100 mM NaCl, 1.5 mM MgCl2, 0.4 uM protein, 0.1 uM dsDNA library, 30 min, room temperature, amylose pull-down; high values mean tight binding
- Run parameters: protein: recombinant; tags: His6-MBP; chain copies: 2; dsDNA, one strand shown
The full ranking holds about 16,000 sequences; the median of “rpm ratio (pull-down/input)” is about 0.94, and the highest 2% start at about 1.7. Shown is part of a subset that was picked to be rich in the highest values.
Recorded binding signal for the following sequences

Below are worked cases with known answers.
{"Record sequence": "GATGATTGTTCTCCCAGCTGATGAATTCGCACAATCGAGTAAACAAATTTTCCTAATCTTTCTGTTCAAGCGCCATCTAC", "Endpoint name": "binding signal", "Readout value": "1.15 RPM ratio (pull-down/input)"}
{"Record sequence": "GATGATTGTTCTCCCAGCTGATGAATTTCGCCAGTCGAGTAAACAAATTTTCCTAATCTTTCTGTTCAAGCGCCATCTAC", "Endpoint name": "binding signal", "Readout value": "0.805 RPM ratio (pull-down/input)"}

Continue with the next sequence.
Measured binding signal, `GATGATTGTTCTCCCAGCTGATGAATTCCTTTAGTCGAGTAAACAAATTTTCCTAATCTTTCTGTTCAAGCGCCATCTAC` : 0.819 RPM ratio (pull-down/input)

----------
Recorded binding signal for the following sequences
- Measured on: MBP-FoxP1dN (Mus musculus, UniProt P58462 326-579)
- Sequence: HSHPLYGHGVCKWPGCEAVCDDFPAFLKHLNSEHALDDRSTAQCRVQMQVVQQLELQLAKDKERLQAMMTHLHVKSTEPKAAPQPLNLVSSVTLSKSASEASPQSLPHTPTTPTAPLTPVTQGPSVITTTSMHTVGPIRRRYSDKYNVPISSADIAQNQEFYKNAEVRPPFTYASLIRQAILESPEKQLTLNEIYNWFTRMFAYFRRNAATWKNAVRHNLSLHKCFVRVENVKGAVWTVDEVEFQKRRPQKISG
- Method description: PD-seq (MBP pull-down with sequencing); 20 mM Tris-HCl pH 7.5, 100 mM NaCl, 1.5 mM MgCl2, 0.4 uM protein, 0.1 uM dsDNA library, 30 min, room temperature, amylose pull-down; high values mean tight binding
- Run parameters: protein: recombinant; tags: His6-MBP; chain copies: 2; dsDNA, one strand shown
Over roughly 16,000 sequences, “rpm ratio (pull-down/input)” has its median near 0.94; the highest 2% begin near 1.7. The full list was thinned out, with the highest values kept by preference.

Below are worked cases with known answers.
{"Record sequence": "GATGATTGTTCTCCCAGCTGATGAATTCCCCAGGTCGAGTAAACAAATTTTCCTAATCTTTCTGTTCAAGCGCCATCTAC", "Measured on": "MBP-FoxP1dN (Mus musculus, UniProt P58462 326-579)", "binding signal": "0.743 RPM ratio (pull-down/input)"}
{"Record sequence": "GATGATTGTTCTCCCAGCTGATGAATTGTATTACTCGAGTAAACAAATTTTCCTAATCTTTCTGTTCAAGCGCCATCTAC", "Measured on": "MBP-FoxP1dN (Mus musculus, UniProt P58462 326-579)", "binding signal": "1.24 RPM ratio (pull-down/input)"}
{"Record sequence": "GATGATTGTTCTCCCAGCTGATGAATTTCGGTTCTCGAGTAAACAAATTTTCCTAATCTTTCTGTTCAAGCGCCATCTAC", "Measured on": "MBP-FoxP1dN (Mus musculus, UniProt P58462 326-579)", "binding signal": "0.825 RPM ratio (pull-down/input)"}
{"Record sequence": "GATGATTGTTCTCCCAGCTGATGAATTTGCAGTTTCGAGTAAACAAATTTTCCTAATCTTTCTGTTCAAGCGCCATCTAC", "Measured on": "MBP-FoxP1dN (Mus musculus, UniProt P58462 326-579)", "binding signal": "1.02 RPM ratio (pull-down/input)"}
{"Record sequence": "GATGATTGTTCTCCCAGCTGATGAATTTATTATTTCGAGTAAACAAATTTTCCTAATCTTTCTGTTCAAGCGCCATCTAC", "Measured on": "MBP-FoxP1dN (Mus musculus, UniProt P58462 326-579)", "binding signal": "1.6 RPM ratio (pull-down/input)"}
{"Record sequence": "GATGATTGTTCTCCCAGCTGATGAATTTGTTTAGTCGAGTAAACAAATTTTCCTAATCTTTCTGTTCAAGCGCCATCTAC", "Measured on": "MBP-FoxP1dN (Mus musculus, UniProt P58462 326-579)", "binding signal": "2.24 RPM ratio (pull-down/input)"}
{"Record sequence": "GATGATTGTTCTCCCAGCTGATGAATTTATTTCTTCGAGTAAACAAATTTTCCTAATCTTTCTGTTCAAGCGCCATCTAC", "Measured on": "MBP-FoxP1dN (Mus musculus, UniProt P58462 326-579)", "binding signal": "1.29 RPM ratio (pull-down/input)"}
{"Record sequence": "GATGATTGTTCTCCCAGCTGATGAATTCGTCTCTTCGAGTAAACAAATTTTCCTAATCTTTCTGTTCAAGCGCCATCTAC", "Measured on": "MBP-FoxP1dN (Mus musculus, UniProt P58462 326-579)", "binding signal": "0.871 RPM ratio (pull-down/input)"}
{"Record sequence": "GATGATTGTTCTCCCAGCTGATGAATTGCTATTGTCGAGTAAACAAATTTTCCTAATCTTTCTGTTCAAGCGCCATCTAC", "Measured on": "MBP-FoxP1dN (Mus musculus, UniProt P58462 326-579)", "binding signal": "2.28 RPM ratio (pull-down/input)"}

Continue with the next sequence.
Measured binding signal, `GATGATTGTTCTCCCAGCTGATGAATTGCTATTTTCGAGTAAACAAATTTTCCTAATCTTTCTGTTCAAGCGCCATCTAC` : 2.22 RPM ratio (pull-down/input)
